target: mu3 opiate receptor (Homo sapiens); construct: aliquots of membrane suspensions from human granulocytes and lung non-small cell carcinoma; from tissue; host or cells: human granulocytes, human monocytes, normal lung, non-small cell lung carcinoma tissue, vascular tissue; assay: biochemical; assay type: binding; details: NORMAL LUNG membranes; 40 nM [3H]-DHM; mean ± SEM; read-out: Displacement of [3H]-DHM IC50
Sequence (P35372 1-314 isoform P35372-14): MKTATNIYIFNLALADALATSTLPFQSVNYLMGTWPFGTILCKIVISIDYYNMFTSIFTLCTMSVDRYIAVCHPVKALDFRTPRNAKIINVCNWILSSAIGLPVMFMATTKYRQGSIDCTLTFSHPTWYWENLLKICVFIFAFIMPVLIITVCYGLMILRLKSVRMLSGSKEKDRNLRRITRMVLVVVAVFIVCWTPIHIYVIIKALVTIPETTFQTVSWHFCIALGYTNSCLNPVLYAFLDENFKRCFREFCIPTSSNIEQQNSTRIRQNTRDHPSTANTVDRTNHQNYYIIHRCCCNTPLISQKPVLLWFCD
pIC50: −log10 of the molar value.
measured-property: pIC50

Prompt: Sample CSCC[C@H](NC(=O)[C@H](Cc1ccccc1)NC(=O)CNC(=O)[C@@H](C)NC(=O)[C@@H](N)Cc1ccc(O)cc1)C(N)=O [DAMA, (D-Ala^2, Met^5)-enkephalinamide] — what was its pIC50?
Completion: < 6.00
